Data origin, for the record: patent US20140235643A1

study system: PI3Kδ (p110δ/p85α) (Homo sapiens)
Construct: purchased Invitrogen
Sequence (O00329 whole entry): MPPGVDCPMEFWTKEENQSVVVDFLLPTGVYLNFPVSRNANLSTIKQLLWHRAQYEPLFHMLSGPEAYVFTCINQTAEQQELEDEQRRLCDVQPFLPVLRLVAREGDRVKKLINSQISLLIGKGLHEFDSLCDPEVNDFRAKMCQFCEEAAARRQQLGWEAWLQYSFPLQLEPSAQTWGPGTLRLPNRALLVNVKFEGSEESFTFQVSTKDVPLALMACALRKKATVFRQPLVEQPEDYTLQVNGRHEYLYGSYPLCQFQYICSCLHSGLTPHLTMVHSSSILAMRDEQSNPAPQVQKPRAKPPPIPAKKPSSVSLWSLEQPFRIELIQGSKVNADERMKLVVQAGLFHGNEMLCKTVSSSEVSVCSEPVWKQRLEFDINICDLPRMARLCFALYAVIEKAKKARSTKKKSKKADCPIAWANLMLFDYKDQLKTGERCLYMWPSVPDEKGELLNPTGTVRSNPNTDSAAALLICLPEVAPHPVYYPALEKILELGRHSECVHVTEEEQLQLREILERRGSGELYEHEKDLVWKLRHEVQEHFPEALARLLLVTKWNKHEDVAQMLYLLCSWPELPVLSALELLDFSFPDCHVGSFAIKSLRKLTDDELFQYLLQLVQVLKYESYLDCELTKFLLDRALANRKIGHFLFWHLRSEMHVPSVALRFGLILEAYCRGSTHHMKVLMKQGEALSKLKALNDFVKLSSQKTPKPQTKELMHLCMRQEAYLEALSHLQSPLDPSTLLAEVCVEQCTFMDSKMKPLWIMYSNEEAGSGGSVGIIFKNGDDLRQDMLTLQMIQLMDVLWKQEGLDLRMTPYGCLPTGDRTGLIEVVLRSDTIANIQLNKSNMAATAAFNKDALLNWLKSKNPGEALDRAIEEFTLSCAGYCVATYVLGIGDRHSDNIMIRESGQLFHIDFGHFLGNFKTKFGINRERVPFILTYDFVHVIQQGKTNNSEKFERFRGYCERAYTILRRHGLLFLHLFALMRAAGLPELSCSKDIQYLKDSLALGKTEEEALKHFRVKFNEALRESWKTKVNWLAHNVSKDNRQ
Sequence (P27986 whole entry partner): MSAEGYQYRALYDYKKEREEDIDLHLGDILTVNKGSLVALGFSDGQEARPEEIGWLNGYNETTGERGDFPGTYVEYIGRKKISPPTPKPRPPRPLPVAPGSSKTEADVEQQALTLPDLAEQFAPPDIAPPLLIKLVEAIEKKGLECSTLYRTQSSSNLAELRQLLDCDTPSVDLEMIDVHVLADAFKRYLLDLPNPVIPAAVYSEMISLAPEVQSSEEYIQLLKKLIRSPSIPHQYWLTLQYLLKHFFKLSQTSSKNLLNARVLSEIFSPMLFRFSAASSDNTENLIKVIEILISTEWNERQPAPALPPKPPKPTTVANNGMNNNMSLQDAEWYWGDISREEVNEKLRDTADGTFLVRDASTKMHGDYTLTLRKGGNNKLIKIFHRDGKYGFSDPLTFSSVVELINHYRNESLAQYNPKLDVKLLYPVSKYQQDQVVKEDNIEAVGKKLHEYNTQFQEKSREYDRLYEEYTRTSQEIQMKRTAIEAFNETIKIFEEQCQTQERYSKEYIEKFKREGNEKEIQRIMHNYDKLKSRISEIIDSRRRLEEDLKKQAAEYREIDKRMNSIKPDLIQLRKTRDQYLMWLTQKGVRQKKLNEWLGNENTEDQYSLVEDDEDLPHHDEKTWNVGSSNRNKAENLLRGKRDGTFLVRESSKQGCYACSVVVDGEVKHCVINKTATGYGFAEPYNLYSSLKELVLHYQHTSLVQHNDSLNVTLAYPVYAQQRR
procedure details: PI3K biochemical enzyme assay (Adapta universal kinase assay), p110 delta/p85 alpha
experimental conditions: 1 μM; read-out: PI3Kδ % inhib
observable: inhibition at 1 µM (%)

[
  {
    "molecule": "CCC(Nc1ncnc2[nH]cnc12)c1nc2ccccc2nc1-c1ccccc1 (centres unmarked)",
    "inhibition at 1 µM [%]": 83
  },
  {
    "molecule": "CC(Nc1ncnc2[nH]cnc12)c1nc2ccccc2nc1-c1cc(F)cc(F)c1 (centres unmarked)",
    "inhibition at 1 µM [%]": 82
  },
  {
    "molecule": "Cc1cccc2nc(C(C)Nc3nc(N)nc4[nH]cnc34)c(-c3ccc(F)cc3)nc12 (centres unmarked)",
    "inhibition at 1 µM [%]": 69
  }
]

[I] CC(Nc1ncnc2[nH]cnc12)c1nc2ccccc2nc1-c1ccccc1 (centres unmarked)
[II] CCC(Nc1ncnc2[nH]cnc12)c1nc2cccc(C)c2nc1-c1ccccc1 (centres unmarked)
IN: Select the item with the higher value of inhibition at 1 µM from the options I and II listed. Pick one; state its label.
OUT: I

[A] Cc1ccc(-c2nc3ccccc3nc2C(C)Nc2ncnc3[nH]cnc23)cc1 (centres unmarked)
[B] CC(Nc1ncnc2[nH]cnc12)c1nc2ccccc2nc1-c1c(F)cccc1F (centres unmarked)
IN: Look at A and B . Which one has the lower recorded inhibition at 1 µM number? # respond with the chosen item's label
OUT: A
(A: 45%, B: 74%)
